- assay.protocol: in vitro
- condition.parameters: human, hela cells, % viability
// boundary case: viability at 28.5 h, 10 µM equal to 90% maps to f; strictly smaller maps to t

> print(dat)
                                   molecule  assigned.label
1  Cc1ccccc1Cc1cccc(C2CCN(S(=O)(=O)c3cn(C)nc3C)CC2)n1               t
2  Cc1ccc(S(=O)(=O)Oc2c(C=C3C(=O)CC(C)(C)CC3=O)[nH]c3ccccc23)cc1               f
3       CCOC(=O)Cn1nc([N+](=O)[O-])c(Cl)c1C               t

Decide: viability at 28.5 h, 10 µM of `COc1ccc(S(=O)(=O)N(C)CC(=O)O)cc1C` strictly below 90%?
f

Could you do the same for CCCCN(Cc1ccc(C)s1)C(=O)C1CCc2nn(C)c(=O)n2C1 (stereo not drawn) , please?
f

Could you do the same for `Cc1ccccc1Cn1c(=O)sc2ccccc21` , please?
f

Could you do the same for O=C(NCC(=O)N(c1cccc(C(F)(F)F)c1)C(C(=O)NCc1ccco1)c1ccccc1F)c1ccco1 (stereo not drawn) , please?
f

Could you do the same for `CCOc1ccccc1-c1noc(-c2nn(-c3ccc(C)cc3)ccc2=O)n1` , please?
f

Could you do the same for `O=C(NCCN1CCOCC1)C1(c2ccccc2)CCCC1` , please?
f
